EXPERIMENTAL_DETAILS: soluble fraction after stress (log2 fold change); higher = more stays soluble; pooled small domains, quantitative proteomics;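 also: 20 min heating vs room temperature control held 20 min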
CONDITION_CONTEXT: stress: 75 degC
Measured soluble fraction (log2) by item
When you answer, write just the number.

record_sequence=HMDAEETLGARLRRLRQARGLSLAGLAQAAGLSKPSIWAWENGTTAPRRTSLLALARALDVPEQQLTGV value_reported=-0.715
record_sequence=HMVQDDLRELEGISTELLAKLADAGITNRDDLADLAIDELVAITGQSEDDAKALIMKAREHWFAGDA value_reported=0.0246
record_sequence=HMSFSQNIGKRIREERLRLNLTQEKLAEDVNLSMAYIGQVERGDRSLTLDNLIIVAKRLGVTIDYLLS value_reported=-4.13

Q: What value of soluble fraction (log2) has been reported for the following sequence? `HMTPDLSEFKERLRQILPGEPIEVRTANDGIVLSGTVTSIAALDRALDLAERYAPDKVSNLLSVG`
Result: 0.149
